assay: Half life in cynomolgus monkey at 1 mg/kg, iv; type: ADME, organism-based, Macaca fascicularis; set-up: dose 1 mg/kg, route intravenous; details: in vivo
metric: half-life (h)
One number for each entry, in h.

half-life reading for Cc1ccc(S(=O)(=O)N2CCNC(=O)[C@H]2CC(=O)N[C@@H]2CCCc3cc(CN4CCCCC4)ccc32)cc1 : 5.6

* * *

assay: Clearance in dog at 1 mg/kg, iv; format: ADME, organism-based, Canis lupus familiaris; set-up: dose 1 mg/kg, route intravenous; details: in vivo
metric: clearance (mL/min/kg)
Numbers only, in mL/min/kg.

clearance reading for Cc1ccc(S(=O)(=O)N2CCNC(=O)[C@H]2CC(=O)N[C@@H]2CCCc3cc(CN4CCCCC4)ccc32)cc1 : 63.3

* * *

I'd appreciate it if you could supply clearance values for the items below.
experiment: in vivo; details: Sprague-Dawley, rat, iv, 1 mg/kg
Kindly format the answer as number then unit.

>  <given-smiles>
Cc1ccc(S(=O)(=O)N2CCNC(=O)[C@H]2CC(=O)N[C@@H]2CCCc3cc(CNCC(C)(C)C)ccc32)cc1

>  <metric>
clearance

>  <data-value>
30 mL/min/kg

$$$$
>  <given-smiles>
O=C(C[C@@H]1C(=O)NCCN1S(=O)(=O)c1ccccc1)N[C@@H]1CCCc2cc(CN3CCCCC3)ccc21

>  <metric>
clearance

>  <data-value>
90 mL/min/kg

$$$$
>  <given-smiles>
Cc1ccc(S(=O)(=O)N2CCNC(=O)[C@H]2CC(=O)N[C@@H]2CCCc3cc(CN4CCCCC4)ccc32)cc1

>  <metric>
clearance

>  <data-value>
123 mL/min/kg

$$$$
>  <given-smiles>
Cc1ccc(S(=O)(=O)N2CCNC(=O)[C@H]2CC(=O)N[C@@H]2CCCc3cc(CNC(C)(C)C)ccc32)cc1

>  <metric>
clearance

>  <data-value>
56.7 mL/min/kg

$$$$

clearance reading for O=C(C[C@@H]1C(=O)NCCN1S(=O)(=O)c1ccc(Cl)cc1)N[C@@H]1CCCc2cc(CN3CCCCC3)ccc21 : 112 mL/min/kg

* * *

assay: Volume of distribution at steady state in rabbit at 1 mg/kg, iv; type: ADME, organism-based, Oryctolagus cuniculus; parameters: dose 1 mg/kg, route intravenous; conditions: in vivo, read-out: Vdss
metric: Vd
Kindly format the answer as number then unit.

Vd reading for Cc1ccc(S(=O)(=O)N2CCNC(=O)[C@H]2CC(=O)N[C@@H]2CCCc3cc(CN4CCCCC4)ccc32)cc1 : 6.4 L/kg

* * *

experiment: Half life in rabbit at 1 mg/kg, iv; type: ADME, organism-based, Oryctolagus cuniculus; design: dose 1 mg/kg, route intravenous; details: in vivo
metric: half-life (h)
One number for each entry, in h.

half-life reading for Cc1ccc(S(=O)(=O)N2CCNC(=O)[C@H]2CC(=O)N[C@@H]2CCCc3cc(CN4CCCCC4)ccc32)cc1 : 2.4

* * *

experiment: Oral bioavailability in rhesus monkey at 5 mg/kg; format: ADME, organism-based, Macaca mulatta; conditions: in vivo
metric: bioavailability (%)
Give bare numbers, in %.

bioavailability reading for Cc1ccc(S(=O)(=O)N2CCNC(=O)[C@H]2CC(=O)N[C@@H]2CCCc3cc(CN4CCCCC4)ccc32)cc1 : 23

* * *

experiment: Clearance in rhesus monkey at 1 mg/kg, iv; type: ADME, organism-based, Macaca mulatta; design: dose 1 mg/kg, route intravenous; details: in vivo
metric: clearance

clearance reading for Cc1ccc(S(=O)(=O)N2CCNC(=O)[C@H]2CC(=O)N[C@@H]2CCCc3cc(CN4CCCCC4)ccc32)cc1 : 30 mL/min/kg
